These data points were gathered from patent US8076338B2.

- TESTED SYSTEM: AktK (Homo sapiens, UniProt P31749)
- Sequence (P31749 whole entry): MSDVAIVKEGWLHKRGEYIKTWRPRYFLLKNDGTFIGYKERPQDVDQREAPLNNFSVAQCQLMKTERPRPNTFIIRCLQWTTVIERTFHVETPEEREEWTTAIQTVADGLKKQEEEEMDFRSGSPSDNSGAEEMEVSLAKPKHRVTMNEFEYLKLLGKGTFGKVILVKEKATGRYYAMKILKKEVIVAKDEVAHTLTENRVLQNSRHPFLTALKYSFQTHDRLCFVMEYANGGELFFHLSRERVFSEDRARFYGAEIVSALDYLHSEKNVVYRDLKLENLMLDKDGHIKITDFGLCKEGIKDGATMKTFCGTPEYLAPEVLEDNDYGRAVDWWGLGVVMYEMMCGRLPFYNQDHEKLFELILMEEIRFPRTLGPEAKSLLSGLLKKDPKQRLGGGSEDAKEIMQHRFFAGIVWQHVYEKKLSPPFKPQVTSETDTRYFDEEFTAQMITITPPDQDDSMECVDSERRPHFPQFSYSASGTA
- EXPERIMENTAL DETAILS: Luciferase-coupled chemiluminescence kinase assay (ATP consumption)
- Assay type: biochemical
- STUDY CONDITIONS: read-out: AKT-1 IC50

MOLECULE: CCc1n[nH]c2ncnc(N3CCN(c4cccc(Cl)c4)CC3)c12
IC50: 1 to 10 µM
--
MOLECULE: CCN(CC)CC#Cc1n[nH]c2ncnc(N3CCN(c4cc(Cl)ccc4C)CC3)c12
IC50: 1 to 10 µM
--
MOLECULE: CCc1n[nH]c2ncnc(N3CCN(c4cccc(Cl)c4)C(C(=O)NCCN(C)C)C3)c12 (stereo not drawn)
IC50: 1 to 10 µM
--
MOLECULE: Cc1ccccc1N1CCN(c2ncnc3[nH]ncc23)CC1
IC50: ≥ 10 µM
--
MOLECULE: Cc1nc(N2CCN(c3cc(Cl)ccc3C)CC2)c2cn[nH]c2n1
IC50: 1 to 10 µM
--
MOLECULE: Cc1ccccc1N1CCN(c2ncnc3[nH]cnc23)CC1
IC50: ≥ 10 µM
--
MOLECULE: CCc1n[nH]c2ncnc(N3CCN(c4cccc(Cl)c4)CC3C(=O)OC)c12 (stereo not drawn)
IC50: ≥ 10 µM
--
MOLECULE: CCc1n[nH]c2ncnc(N3CCN(c4cc(Cl)cc(NCCN(C)C)c4C)CC3)c12
IC50: 0.1 to 1 µM
--
MOLECULE: Cc1ccc(Cl)cc1N1CCN(c2ncnc3[nH]nc(-c4ccc5c(c4)OCO5)c23)CC1
IC50: 1 to 10 µM
--
MOLECULE: COCCOCc1n[nH]c2ncnc(N3CCN(c4cc(Cl)ccc4C)CC3)c12
IC50: 1 to 10 µM
--
MOLECULE: Clc1cccc(N2CCN(c3ncnc4[nH]ncc34)CC2)c1
IC50: ≥ 10 µM
--
MOLECULE: Cc1ccc(Cl)cc1N1CCN(c2ncnc3[nH]nc(C#CCN4CCN(C)CC4)c23)CC1
IC50: 1 to 10 µM
--
MOLECULE: CCc1n[nH]c2ncnc(N3CCN(c4cc(Cl)cc(CCCN(CC)CC)c4C)CC3)c12
IC50: 0.1 to 1 µM
--
MOLECULE: Clc1cccc(N2CCN(c3ncnc4[nH]cnc34)CC2)c1
IC50: ≥ 10 µM
--
MOLECULE: c1ccc(N2CCN(c3ncnc4[nH]ccc34)CC2)cc1
IC50: ≥ 10 µM
--
MOLECULE: Clc1cccc(N2CCN(c3ncnc4[nH]ccc34)CC2)c1
IC50: 1 to 10 µM
--
MOLECULE: FC(F)(F)c1cccc(N2CCN(c3ncnc4[nH]ncc34)CC2)c1
IC50: ≥ 10 µM
--
MOLECULE: Cc1ccc(Cl)cc1N1CCN(c2ncnc3[nH]nc(-c4cccc(N)c4)c23)CC1
IC50: 1 to 10 µM
--
MOLECULE: COc1ccc(N2CCN(c3ncnc4[nH]cnc34)CC2)cc1
IC50: ≥ 10 µM
--
MOLECULE: CCc1n[nH]c2ncnc(N3CCN(c4cccc(Cl)c4)C(C(=O)NC)C3)c12 (stereo not drawn)
IC50: 1 to 10 µM
--
MOLECULE: CC(=O)Nc1ccc(-c2n[nH]c3ncnc(N4CCN(c5cc(Cl)ccc5C)CC4)c23)cc1
IC50: 1 to 10 µM
